Test system: L1210 leukemia ip in BDF1 mice, survival T/C
method_description: NCI In Vivo Anticancer Drug Screen. Data for tumor model L1210 Leukemia (intraperitoneal) in B6D2F1 (BDF1) mice
condition_parameters: endpoint: mean survival time; dose: 200.0 mg/kg/injection; schedule: Q04DX003 (ip); vehicle: Klucel (hydroxypropylcellulose) (HPC)
Toxic doses and inconclusive results are not listed. Cut-off read from the data, not from the text of the source: active = T/C of 150% or more; inactive = T/C below 125%.
Outcomes: True for active, False for inactive

In [3]: df
Out[3]:
                                    compound  label_class
 0      CS(=O)(=O)c1nc(Cl)nc(S(C)(=O)=O)c1Cl        False
 1     O=C(Nc1ccc(Cl)c(Cl)c1)Oc1ccc2ccccc2c1        False
 2  CCOC(=O)c1ccc(N=NN(C)C(C)CC)cc1 (stereo not drawn)        False
 3         CCOC(=O)/C(C#N)=C/c1ccc(O)c(OC)c1        False
 4            Cc1c(NC=O)c(=O)n(-c2ccccc2)n1C        False
 5  CSCC(C(N)=O)c1cc(Cl)ccc1Cl (stereo not drawn)        False
 6        CCN(CC)C(=O)c1ccc([N+](=O)[O-])cc1        False
 7             CC(C)c1cc(CN(C)C)cc(C(C)C)c1O        False
 8          Clc1ccc(Cl)c(NNc2cc(Cl)ccc2Cl)c1        False
 9  O=S(=O)(Oc1cccc(C(F)(F)F)c1)c1cccc(C(F)(F)F)c1        False
10  c1ccc(CC2NC2c2ccccc2)cc1 (stereo not drawn)        False
11  CCC(=O)Oc1c(CC=C(C)C)c(OC(=O)CC)c2ccccc2c1OC(=O)CC        False
12     NC(=O)c1[nH]cnc1/N=N/N(CCCl)Cc1ccccc1         True

====

System: L1210 leukemia ip in BDF1 mice, survival T/C
method_description: NCI In Vivo Anticancer Drug Screen. Data for tumor model L1210 Leukemia (intraperitoneal) in B6D2F1 (BDF1) mice
condition_parameters: endpoint: mean survival time; dose: 100.0 mg/kg/injection; schedule: Q04DX002 (ip); vehicle: Klucel (hydroxypropylcellulose) (HPC); higher = longer survival
Inconclusive results and toxic doses are left out.
molecules and their reported T/C
reported_endpoint: T/C

In [3]: df
Out[3]:
                                    molecule                                       tgt          measured
 0               CN(Cc1ccccc1)C(=O)NC(C)(C)C  L1210 leukemia ip in BDF1 mice, survival T/C  121 % of control
 1             CC(C)c1nc(CO)c(CO)n1Cc1ccccc1  L1210 leukemia ip in BDF1 mice, survival T/C  112 % of control
 2  Cc1cc(C)c2c(c1)CC2NC(=O)c1ccccc1 (stereo not drawn)  L1210 leukemia ip in BDF1 mice, survival T/C   95 % of control
 3  c1ccc(-c2cc(-c3ccccc3)[o+]c(-c3ccccc3)c2)cc1  L1210 leukemia ip in BDF1 mice, survival T/C   93 % of control
 4           O=C(Nc1ccccc1Cl)Nc1cccc2ccccc12  L1210 leukemia ip in BDF1 mice, survival T/C  105 % of control
 5                   CC/C(N)=C\C(=O)c1ccccc1  L1210 leukemia ip in BDF1 mice, survival T/C  102 % of control
 6  O=C1C=C(C23CC4CC(CC(C4)C2)C3)N2CCCc3cccc(c32)N1  L1210 leukemia ip in BDF1 mice, survival T/C   97 % of control
 7  OC1C(Br)C2C3CC4C(C13)C42 (stereo not drawn)  L1210 leukemia ip in BDF1 mice, survival T/C   89 % of control
 8                         CC(=O)c1cccc(F)n1  L1210 leukemia ip in BDF1 mice, survival T/C   93 % of control
 9        CCn1cc(C(=O)O)c(=O)c2ccc3ccccc3c21  L1210 leukemia ip in BDF1 mice, survival T/C  100 % of control
10  CC(C)(C)N1C=C(c2ccccc2)N=CC1(c1ccccc1)C(C)(C)C (stereo not drawn)  L1210 leukemia ip in BDF1 mice, survival T/C   92 % of control
11  COc1cccc(NC(=O)c2cccc([N+](=O)[O-])c2)c1  L1210 leukemia ip in BDF1 mice, survival T/C   94 % of control
12          O=C(NCc1cccc2ccccc12)Nc1ccccc1Cl  L1210 leukemia ip in BDF1 mice, survival T/C  100 % of control

====

Tested on: L1210 leukemia ip in BDF1 mice, survival T/C
method_description: NCI In Vivo Anticancer Drug Screen. Data for tumor model L1210 Leukemia (intraperitoneal) in B6D2F1 (BDF1) mice
condition_parameters: endpoint: mean survival time; dose: 25.0 mg/kg/injection; schedule: Q04DX003 (ip); vehicle: saline with Tween-80; higher = longer survival
Toxic doses and inconclusive results are not listed.
reported_endpoint: T/C

                    input_smiles  reported_endpoint          measured
0   CC(=O)Nc1ccc(SC(=O)N(C)C)cc1                T/C   98 % of control
1           O=c1ccc2c([nH]1)CCC2                T/C   94 % of control
2           Nc1nc(N)c2c(n1)CCCC2                T/C   93 % of control
3          CCCCOP(=O)(CCCC)OCCCC                T/C  104 % of control
4  COc1cc(/C=N/[N+](C)(C)C)ccc1O                T/C   93 % of control

====

Tested on: L1210 leukemia ip in BDF1 mice, survival T/C
method_description: NCI In Vivo Anticancer Drug Screen. Data for tumor model L1210 Leukemia (intraperitoneal) in B6D2F1 (BDF1) mice
condition_parameters: endpoint: mean survival time; dose: 150.0 mg/kg/injection; schedule: Q04DX003 (ip); vehicle: Klucel (hydroxypropylcellulose) (HPC); higher = longer survival
Toxic doses and inconclusive results are not listed.
reported_endpoint: T/C

>>> df
                                   compound          measured
0  O=C(O)C(CSC(c1ccccc1)c1ccccc1)N1C(=O)c2ccccc2C1=O (centres undefined)  109 % of control
1           CCOC(=O)Cc1ccc([N+](=O)[O-])cc1  107 % of control
2                   O=C(NCCBr)c1ccc(CCl)cc1   96 % of control
3  NC(CO)C(O)c1ccc(-c2ccccc2)cc1 (centres undefined)  106 % of control

====

Tested on: L1210 leukemia ip in BDF1 mice, survival T/C
method_description: NCI In Vivo Anticancer Drug Screen. Data for tumor model L1210 Leukemia (intraperitoneal) in B6D2F1 (BDF1) mice
condition_parameters: endpoint: mean survival time; dose: 200.0 mg/kg/injection; schedule: Q01DX009 (ip); vehicle: Klucel (hydroxypropylcellulose) (HPC); higher = longer survival
Toxic doses and inconclusive results are not listed.
reported_endpoint: T/C

compound	reported_endpoint	measured
CCOC(=O)c1cnc(SC)nc1NCc1ccccc1Cl	T/C	97 % of control
Cc1ccc(CNC(=O)C2CCCCC2C(=O)O)cc1 (stereo unspecified)	T/C	96 % of control
O=C(O)c1cnc[nH]1	T/C	92 % of control
COC(=O)C1CC(C(N)=O)CC1OC(C)=O (stereo unspecified)	T/C	93 % of control
C=CCc1ccc(OC(=O)Nc2cccc(OC)c2)c(OC)c1	T/C	98 % of control
O=[N+]([O-])c1ccc(Oc2ccc(S(=O)(=O)F)cc2)cc1	T/C	97 % of control
O=C(/C=C(\C(=O)c1ccccc1)c1ccccc1)c1ccc(Cl)cc1	T/C	94 % of control
CCC(=O)OC1C(C)OC(OC2C(C)OC(O[C@H]3[C@@H](CC=O)C[C@@H](C)[C@@H](O)/C=C/C=C/C[C@@H](C)OC(=O)C[C@@H](OC(=O)CC)[C@@H]3OC)C(O)C2N(C)C)CC1(C)O (stereo partly specified)	T/C	93 % of control
CCCCCCCCCCCCNC(=O)Nc1cccc(C)c1C	T/C	100 % of control
CC(C)COC(=O)c1ccc(NC(=S)Nc2ccccc2)cc1	T/C	93 % of control
O=C(O)CSCCc1ccccc1	T/C	94 % of control

====

compounds and their reported T/C
Tested on: L1210 leukemia ip in BDF1 mice, survival T/C
method_description: NCI In Vivo Anticancer Drug Screen. Data for tumor model L1210 Leukemia (intraperitoneal) in B6D2F1 (BDF1) mice
condition_parameters: endpoint: mean survival time; dose: 200.0 mg/kg/injection; schedule: Q04DX002 (ip); vehicle: saline; higher = longer survival
Procedure: The antitumor activity of compounds was measured in mice bearing transplantable tumors. Survival or tumor size were measured and the results are expressed as the measurement made in the treated group (T) divided by the measurement made in the vehicle treated control group (C). The tumor model used in this assay is L1210 Leukemia (intraperitoneal) in B6D2F1 (BDF1) mice
Inconclusive results and toxic doses are left out.
reported_endpoint: T/C

>>> print(df.to_string())
                                    compound  reported_endpoint          measured
 0  Cc1cccc(C2=N/C(=C\c3c(O)ccc4ccccc34)C2=O)c1                T/C   95 % of control
 1  C=CCc1cn(C2CC(O)C(CO)O2)c(=O)[nH]c1=O (stereo unspecified)                T/C  100 % of control
 2              CC(N)CN (stereo unspecified)                T/C   89 % of control
 3                     CN(C)/C=N/N1CCN(C)CC1                T/C  101 % of control
 4           CCN(CC#CCOc1ccc(Br)cc1)c1ccccc1                T/C  101 % of control
 5  CCOC(=O)C1CCC(=O)O1 (stereo unspecified)                T/C  101 % of control
 6               C[N+](C)(C)CCCS(=O)(=O)[O-]                T/C  111 % of control
 7                       C1[CH2][Hg][CH2]CO1                T/C  100 % of control
 8             O=C(O)c1cc([N+](=O)[O-])ccc1O                T/C  101 % of control
 9                      O=P(O)(O)C(Cl)(Cl)Cl                T/C   99 % of control
10       C1CCC2CCCCC2C1 (stereo unspecified)                T/C   91 % of control
